Exercise: for every item that follows, state its recorded inhibition at 3.3 µM.
Target: HIV-1 protease (Human immunodeficiency virus type 1 group M subtype B, UniProt P04585)
Construct: The protease (or proteinase), consisting of only 99 amino acids, is among the smallest enzymes known
Assay: In vitro HIV protease inhibitory assay (HIV Protease FITC Assay)
Assay type: biochemical
Settings: HIV-1 Dose 3.300 uM; read-out: HIV-1 Protease % Inhib
Entry rule: numbers only, all in %.

Reported inhibition at 3.3 µM for O=c1oc(CC2CCCC2)cc(O)c1C(c1ccccc1)C1CC1 (centres unmarked) [Example 143] : what is it?
57.9

Can you check CCC(c1ccccc1)c1cc(O)c(C(CC)c2ccccc2)c(=O)o1 (centres unmarked) [Example 186] next?
11

Can you check CCC(Cc1ccccc1)c1cc(O)c(C(c2cccc(NS(=O)(=O)c3ccc(OC)cc3)c2)C2CC2)c(=O)o1 (centres unmarked) [Example 185] next?
95.9

Can you check CCC(CCCl)c1cc(O)c(C(c2ccccc2)C2CC2)c(=O)o1 (centres unmarked) [Example 66] next?
99.4

Can you check CCC(CC1=CCCOC1)c1cc(O)c(C(c2ccccc2)C2CC2)c(=O)o1 (centres unmarked) [Example 76] next?
98.9

Can you check CCC(Cc1cccc(OC)c1)c1cc(O)c(C(c2ccccc2)C2CC2)c(=O)o1 (centres unmarked) [Example 164] next?
68.8

Can you check CCC(Cc1ccccc1Cl)c1cc(O)c(C(c2ccccc2)C2CC2)c(=O)o1 (centres unmarked) [Example 157] next?
69

Can you check CCC(Cc1ccccc1)c1cc(O)c(C(c2cccc(NS(=O)(=O)c3ccc(Br)cc3)c2)C2CC2)c(=O)o1 (centres unmarked) [Example 181] next?
95.3
